For each record, write down the corresponding binding signal.
- TESTED TARGET: T1, RBFOX1 RRM (Homo sapiens, UniProt Q9NWB1 109-208)
- T1 sequence: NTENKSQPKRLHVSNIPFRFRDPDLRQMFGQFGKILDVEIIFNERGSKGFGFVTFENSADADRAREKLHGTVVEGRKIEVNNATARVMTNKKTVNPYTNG
- ASSAY PROTOCOL: EMSA; HiTS-Eq, 1 nM pool, 10 min; buffer printed only for the single-RNA assays: 10 mM Tris pH 7.5, 150 mM NaCl, 3.4 mM EDTA, 0.001% NP-40, 30 C
- CONDITION LABEL: tags: His6 N-terminal (pET28a); label: 5' 32P
Whole data set: some 16,000 sequences, median “ka relative to ugcaugu” near 0.0091, cut for the highest 2% near 0.032. For the sample, the highest values were picked, then their nearest neighbours and some sequences at random.

Look at this binder and give its reported binding signal. GGGCAUU (DNA:RNA) RNA: GGGAGACCGGAAUUCAGAUUGUCCGGGCAUUUUAAAUCCCGUCGUAGCCACCA DNA 1: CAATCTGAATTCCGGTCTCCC DNA 2: TGGTGGCTACGACGGGATT
0.0157 KA relative to UGCAUGU

Could you do the same for UGCGUGG (DNA:RNA) RNA: GGGAGACCGGAAUUCAGAUUGUCCUGCGUGGUUAAAUCCCGUCGUAGCCACCA DNA 1: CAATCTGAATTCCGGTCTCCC DNA 2: TGGTGGCTACGACGGGATT , please?
0.0211 KA relative to UGCAUGU

Could you do the same for UGCAUGG (DNA:RNA) RNA: GGGAGACCGGAAUUCAGAUUGUCCUGCAUGGUUAAAUCCCGUCGUAGCCACCA DNA 1: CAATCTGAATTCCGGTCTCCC DNA 2: TGGTGGCTACGACGGGATT , please?
0.965 KA relative to UGCAUGU

Could you do the same for GGGCAUC (DNA:RNA) RNA: GGGAGACCGGAAUUCAGAUUGUCCGGGCAUCUUAAAUCCCGUCGUAGCCACCA DNA 1: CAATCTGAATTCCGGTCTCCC DNA 2: TGGTGGCTACGACGGGATT , please?
0.0179 KA relative to UGCAUGU
